Biological target: human recombinant 5-HT2A receptor (Homo sapiens, UniProt P28223)
Construct: expressed in transfected cells; host or cells: Jump-In HEK cells (membrane preparation)
Sequence (P28223 whole entry): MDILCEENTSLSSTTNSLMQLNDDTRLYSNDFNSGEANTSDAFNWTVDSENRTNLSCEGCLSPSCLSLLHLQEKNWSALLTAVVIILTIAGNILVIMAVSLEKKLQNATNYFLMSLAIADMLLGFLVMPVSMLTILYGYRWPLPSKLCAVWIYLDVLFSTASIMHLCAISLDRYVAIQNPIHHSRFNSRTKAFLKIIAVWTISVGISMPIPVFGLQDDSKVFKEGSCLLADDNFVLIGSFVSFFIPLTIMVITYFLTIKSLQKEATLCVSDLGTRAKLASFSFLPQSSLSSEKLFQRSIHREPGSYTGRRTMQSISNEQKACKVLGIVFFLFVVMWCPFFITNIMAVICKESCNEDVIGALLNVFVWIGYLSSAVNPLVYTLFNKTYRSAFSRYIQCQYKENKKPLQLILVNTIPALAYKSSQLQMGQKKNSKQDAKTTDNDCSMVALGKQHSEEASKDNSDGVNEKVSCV
Experiment: Test Example 1-2: 5-HT2A receptor binding inhibition test ([3H]-Ketanserin; non-specific ligand Ketanserin)
Conditions: [3H]-Ketanserin; non-specific binding with 500 µmol/L Ketanserin; room temperature (25°C), 1.5 hours; read-out: h 5-HT2A Ki
Method: The Kd value is calculated when the lot of the cell membrane is changed. […] The radioactivity of [^3H]-Ketanserin bound to the 5-HT2A receptor is measured using Microbeta2 (PerkinElmer) at a measurement time of 1 min/well. The Saturation curve is drawn from the measured value, and the Kd value is calculated from the slope of the Scatchard Plot. […]
pKi: −log10 of the molar value.
Measured Metric: pKi

Examples with answers:
Cc1nc(OCC(F)F)nc(C)c1-c1cc(Nc2ncc(C(F)(F)F)cc2Cl)ncc1OCCO | 9.15
Cn1ncc(Br)c1-c1cc(Nc2ncc(C(F)(F)F)cc2F)ncc1OC(F)(F)CO | 9.50
Cc1cnccc1-c1cc(Nc2ncc(C(F)(F)F)cc2F)ccc1OCCO | 9.57

1: Cn1ncc(Br)c1-c1nc(Nc2ccc(C(F)(F)F)cn2)ncc1OCCO
2: COCc1nc(C)c(-c2cc(Nc3ncc(C(F)(F)F)cc3Cl)ncc2OCCO)c(C)n1
## Task Please tell me which of the two, 1 or 2 , has the higher reported pKi value. Bench note: the answer is the label of the chosen record.
## Result 1

A: Cn1ncc(F)c1-c1cc(Nc2ncc(Cl)cc2F)cnc1OCCO
B: Cn1ncc(C#N)c1-c1cc(Nc2ncc(OC(F)(F)F)cc2Cl)ncc1OCCO
## Task Please tell me which of the two, A or B , has the higher reported pKi value. Bench note: the answer is the label of the chosen record.
## Result B
(B: 9.74, A: 9.37)

a: COCc1nc(C)c(-c2cc(Nc3ncc(-c4ccc(F)cc4)cc3Cl)ncc2OCCO)c(C)n1
b: Cc1nc(C)c(-c2cc(Nc3ncc(OC(F)(F)F)cc3C)ncc2OCCO)c(C)n1
c: Cn1ncc(Cl)c1-c1cc(Nc2ncc(C(F)(F)F)cc2F)ncc1OCCO
## Task Order the records by pKi, with each subsequent value no larger than the one before. // rank by listing labels in the order requested
## Result c, a, b
(c: 9.58, a: 9.24, b: 9.01)

P: COc1ncccc1-c1cc(Nc2ncc(C(F)(F)F)cc2F)ccc1OCCO
Q: Cc1nc(C)c(-c2cc(Nc3ncc(Cl)cc3F)c(F)cc2OCCO)c(C)n1
## Task Please tell me which of the two, P or Q , has the higher reported pKi value. Bench note: the answer is the label of the chosen record.
## Result P
(P: 9.38, Q: 9.17)

---

Biological target: human recombinant 5-HT2C receptor (Homo sapiens, UniProt P28335)
Construct: expressed in transfected cells; host or cells: Jump-In HEK cells (membrane preparation)
Sequence (P28335 33-458): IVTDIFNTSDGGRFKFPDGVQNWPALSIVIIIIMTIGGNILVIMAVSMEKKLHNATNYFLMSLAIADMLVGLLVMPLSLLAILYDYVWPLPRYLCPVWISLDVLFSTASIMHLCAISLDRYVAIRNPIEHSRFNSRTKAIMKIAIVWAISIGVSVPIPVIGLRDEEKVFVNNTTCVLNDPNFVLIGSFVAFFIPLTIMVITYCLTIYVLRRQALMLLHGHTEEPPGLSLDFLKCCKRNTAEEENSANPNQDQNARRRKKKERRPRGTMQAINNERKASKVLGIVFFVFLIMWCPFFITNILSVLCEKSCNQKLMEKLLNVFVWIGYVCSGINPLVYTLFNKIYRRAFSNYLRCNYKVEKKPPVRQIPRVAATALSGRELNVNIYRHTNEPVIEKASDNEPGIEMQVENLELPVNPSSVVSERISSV
Assay: Test Example 2: 5-HT2C receptor binding inhibition test ([3H]-Mesulergine; non-specific ligand Serotonin HCl)
Conditions: human serotonin 5-HT2C receptor binding activity
Description: The Kd value is calculated when the lot of the cell membrane is changed. […] The radioactivity of [^3H]-Mesulergine bound to the 5-HT2C receptor is measured using Microbeta2 (PerkinElmer) at a measurement time of 1 min/well. The Saturation curve is drawn from the measured value, and the Kd value is calculated from the slope of the Scatchard Plot. […]
Measured Metric: Ki (nM)

Examples with answers:
Cn1ncc(Br)c1-c1cc(Nc2cc(C(F)(F)F)ccn2)c(F)cc1OCCO | 3.64
Cc1nc(C)c(-c2nc(Nc3ccc(C(F)(F)F)c(C)n3)c(F)cc2OCCO)c(C)n1 | 4.58
O=C1OCc2c1cccc2-c1cc(Nc2ncc(C(F)(F)F)cc2F)ncc1OCCO | 54.8
CCc1ncccc1-c1cc(Nc2ncc(C(F)(F)F)cc2F)ncc1OCCO | 64.9

1: COCc1nc(C)c(-c2nc(Nc3cc(-c4ccccc4)no3)c(F)cc2OCCO)c(C)n1
2: Cn1ncc(Br)c1-c1nc(Nc2ccc(C(F)(F)F)cn2)c(F)cc1OCCO
3: Cc1nc(C)c(-c2nc(Nc3ccc(OC(F)F)cc3)c(F)cc2OCCO)c(C)n1
4: Cn1ncc(C#N)c1-c1cc(Nc2ncc(OC(F)(F)F)cc2Cl)ncc1OCCO
## Task Order the records by Ki, with each subsequent value no larger than the one before. // rank by listing labels in the order requested
## Result 1, 4, 2, 3
(1: 78.9 nM, 4: 2.9 nM, 2: 1.94 nM, 3: 0.589 nM)

---

molecular target: human recombinant 5-HT2A receptor (Homo sapiens); construct: expressed in transfected cells; host or cells: Jump-In HEK cells (membrane preparation); test: Test Example 1-2: 5-HT2A receptor binding inhibition test ([3H]-Ketanserin; non-specific ligand Ketanserin); settings: [3H]-Ketanserin; non-specific binding with 500 µmol/L Ketanserin; room temperature (25°C), 1.5 hours; read-out: h 5-HT2A Ki
pKi: −log10 of the molar value.
Measured Metric: pKi

Examples with answers:
Cc1nc(C2CCC2)nc(C)c1-c1cc(Nc2ncc(C(F)(F)F)cc2Cl)ncc1OCCO | 8.99
COC(=O)c1cnc(Nc2ccc(OCCO)c(-c3c(Br)cnn3C)c2)c(F)c1 | 9.50
Cc1nc(C)c(-c2cc(Nc3ncc(C(F)(F)F)cc3F)c(F)cc2OCCO)c(C)n1 | 9.17
Cc1cnn(C)c1-c1cc(Nc2ncc(C(F)(F)F)cc2F)c(F)cc1OCCO | 9.47
Cn1ncc(Br)c1-c1nc(Nc2ccc(C(F)(F)F)cn2)c(F)cc1OCCO | 9.51
Cn1ncc(Cl)c1-c1cc(Nc2ccc(Cl)cn2)c(F)cc1OCCO | 9.67

a: COCc1nc(C)c(-c2cc(Nc3ncc(OCC(F)(F)C(F)(F)F)cc3Cl)ncc2OCCO)c(C)n1
b: Cn1ncc(Br)c1-c1cc(Nc2ccc(Cl)cn2)c(F)cc1OCCO
## Task Please tell me which of the two, a or b , has the higher reported pKi value. Bench note: the answer is the label of the chosen record.
## Result b
(b: 9.54, a: 8.35)

---

target: human recombinant 5-HT2A receptor (Homo sapiens); construct: expressed in transfected cells; host or cells: Jump-In HEK cells (membrane preparation); assay: Test Example 1-2: 5-HT2A receptor binding inhibition test ([3H]-Ketanserin; non-specific ligand Ketanserin); conditions: [3H]-Ketanserin; non-specific binding with 500 µmol/L Ketanserin; room temperature (25°C), 1.5 hours; read-out: h 5-HT2A Ki
Measured Metric: Ki (nM)

Examples with answers:
Cc1ncnc(C)c1-c1cc(Nc2ccc(C(F)(F)F)cn2)ccc1OCCO | 0.27
Cc1nc(C)c(-c2nc(Nc3ccc(-c4ccc(C(F)(F)F)nc4)cn3)c(F)cc2O[C@H](C)CO)c(C)n1 | 3.34
Cn1ncc(Br)c1-c1nc(Nc2ccc(OC(F)(F)F)cc2)ncc1OCCO | 0.262
Cc1nc(C)c(-c2cc(Nc3ccc(-c4ccc(F)cc4)cn3)cnc2O[C@H](C)CO)c(C)n1 | 0.4
COCc1nc(C)c(-c2cc(Nc3ncc(-c4ccc(F)c(Cl)c4)cc3Cl)ncc2OCCO)c(C)n1 | 0.52

1: Cc1nc(C)c(-c2nc(Nc3ccc(C(F)(F)F)cc3)c(F)cc2OCCO)c(C)n1
2: Cn1ncc(Br)c1-c1cc(Nc2ncc(Cl)s2)cnc1OCCO
## Task Please tell me which of the two, 1 or 2 , has the higher reported Ki value. Bench note: the answer is the label of the chosen record.
## Result 1

---

target: human recombinant 5-HT2A receptor (Homo sapiens); construct: expressed in transfected cells; host or cells: Jump-In HEK cells (membrane preparation); experiment: Test Example 1-2: 5-HT2A receptor binding inhibition test ([3H]-Ketanserin; non-specific ligand Ketanserin); conditions: [3H]-Ketanserin; non-specific binding with 500 µmol/L Ketanserin; room temperature (25°C), 1.5 hours; read-out: h 5-HT2A Ki
Measured Metric: Ki (nM)

Examples with answers:
Cc1nc(C)c(-c2cc(Nc3ncc(C(F)(F)F)cc3F)ccc2OCCO)c(C)n1 [Compound I-097] | 0.509
Cn1ncc(Cl)c1-c1cc(Nc2ncc(Cl)cc2F)ncc1OCCO [Compound I-156] | 0.315

1: COc1nc(C)nc(OC)c1-c1cc(Nc2ncc(C(F)(F)F)cc2Cl)ncc1OCCO [Compound I-380]
2: Cc1nc(C)c(-c2cc(Nc3ccc(C4(C(F)(F)F)CC4)cn3)ncc2OCCO)c(C)n1 [Compound I-297]
## Task Looking only at measured Ki, which entry is lower, 1 or 2 ? Bench note: the answer is the label of the chosen record.
## Result 1
(1: 0.527 nM, 2: 2.07 nM)

1: Cn1ncc(Br)c1-c1cc(Nc2cnc(C(F)(F)F)cn2)c(F)cc1OCCO [Compound I-404]
2: Cc1nc(COC2COC2)nc(C)c1-c1cc(Nc2ncc(C(F)(F)F)cc2Cl)ncc1OCCO [Compound I-376]
3: COCc1nc(C)c(-c2cc(Nc3ncc(-c4cnc(C(F)(F)F)nc4)cc3Cl)ncc2OCCO)c(C)n1 [Compound I-245]
## Task Ascending sort, Ki. // rank by listing labels in the order requested
## Result 1, 2, 3

a: Cc1nc(C)c(-c2cc(Nc3ccc(Cl)cn3)c(F)cc2OCCO)c(C)n1 [Compound I-167]
b: CCc1coc(-c2cnc(Nc3cc(-c4c(C)nc(COC)nc4C)c(OCCO)cn3)c(Cl)c2)n1 [Compound I-331]
## Task Looking only at measured Ki, which entry is lower, a or b ? Bench note: the answer is the label of the chosen record.
## Result a
(a: 0.511 nM, b: 1.91 nM)

I: Cc1cnn(C)c1-c1cc(Nc2ccc(C(F)(F)F)cn2)c(Oc2ccn(C)n2)cc1OCCO [Compound I-126]
II: Cc1nc(C)c(-c2cc(Nc3ccc(-c4ccc(F)cc4)cn3)ncc2OCCO)c(C)n1 [Compound I-309]
III: COCc1nc(C)c(-c2cc(Nc3ncc(-n4cc(Cl)cn4)cc3Cl)ncc2OCCO)c(C)n1 [Compound I-236]
IV: COCc1nc(C)c(-c2cc(Nc3ncc(OCC(F)(F)C(F)F)cc3Cl)ncc2OCCO)c(C)n1 [Compound I-333]
V: Cc1cnn(C)c1-c1nc(Nc2ccc(OC(F)(F)F)cc2)ncc1OCCO [Compound I-356]
## Task Order the records by Ki, with each subsequent value no larger than the one before. // rank by listing labels in the order requested
## Result IV, III, I, II, V
